The reported measurements were obtained from ChEMBL document CHEMBL1201862.

Tested on: OVCAR-8
assayProcedure: NCI tumour cell line growth inhibition, 48 h
Calls of active or inactive are those of the source. No stated cut-off is given here; in the data, active = GI50 up to about 1.1 µM and inactive = higher.
Result category, one only: y = active, n = inactive

Example entries and their recorded answers appear below.
c1ccc(-c2nc(-c3ccccc3SSc3ccccc3-c3nc(-c4ccccc4)nn3-c3ccccc3)n(-c3ccccc3)n2)cc1 : n
CC(C)C(OC(=O)c1ccc(NCc2cc(O)ccc2O)cc1)C(C)C : n

Could you now consider this next compound?
IN: Hi, do you know how CCN(CCCl)CCCNc1c2ccccc2nc2ccc(OC)cc12 came out in this test?
OUT: y

* * *

System: SK-MEL-2
assayProcedure: NCI tumour cell line growth inhibition, 48 h
Activity calls are given as the source filed them. No stated cut-off is given here; in the data, active = GI50 up to about 1.1 µM and inactive = higher.
testReadout: GI50

Please review the entries below; each comes with its answer.
O=c1[nH]nc(Cc2ccc(Cl)cc2)n1/N=C\CC/C=N\n1c(Cc2ccc(Cl)cc2)n[nH]c1=O : 29.8 µM (inactive)
N#Cc1c(-c2ccccc2)c(C#N)c(=S)n(C2OC(CO)C(O)C(O)C2O)c1O (stereo not drawn) : > 100 µM (inactive)

We next turn to a different compound, shown below.
IN: What value of GI50 on SK-MEL-2 does CCOC(=O)Cc1nc(/C(C#N)=C/c2ccco2)[nH]c(=O)c1C#N have?
OUT: > 100 µM (inactive)

* * *

Reported values of GI50 for individual entries
Test system: NCI-H23
assayProcedure: NCI tumour cell line growth inhibition, 48 h
The source made the active and inactive calls. No stated cut-off is given here; in the data, active = GI50 up to about 1.1 µM and inactive = higher.

Please review the entries below; each comes with its answer.
CCN(CC)C(c1ccc(N(C)C)cc1)C(c1ccc(N(C)C)cc1)N(CC)CC (stereo not drawn) : 48.3 µM (inactive)
BrC(=C(c1ccc(OC2CCCCO2)cc1)c1ccc(OC2CCCCO2)cc1)c1ccccc1 (stereo not drawn) : > 100 µM (inactive)

We next turn to a different molecule, shown below.
IN: Dear colleague, I am looking for the recorded GI50 of the following molecule: CCc1n[nH]c(=O)n1/N=C(\C)c1ccccc1
OUT: > 100 µM (inactive)

* * *

Tested on: HCC 2998
assayProcedure: NCI tumour cell line growth inhibition, 48 h
The source made the active and inactive calls. No stated cut-off is given here; in the data, active = GI50 up to about 1.1 µM and inactive = higher.
Reported values of GI50 for individual entries

Please review the entries below; each comes with its answer.
O=C1c2cccc([N+](=O)[O-])c2C(=O)c2nccnc21 : 2.62 µM (inactive)
O=C(Nc1ccccc1)N1N=C(c2ccccc2)C1c1ccccc1 (configuration not stated) : 31.3 µM (inactive)
CCn1cc2c(=O)n3ncn(-c4ccc(Br)cc4)c3nc2n1 : > 100 µM (inactive)
CSc1cnc2ccccc2c1SC1CN(Cc2ccccc2)c2ccccc2C1=O (configuration not stated) : > 100 µM (inactive)

IN: Dear colleague, I am looking for the recorded GI50 of the following molecule: CCCCc1c2c(nc3c1CCc1cc(C=O)c(N)nc1-3)/C(=C/c1ccccc1)CCC2
OUT: 29.9 µM (inactive)

IN: Dear colleague, I am looking for the recorded GI50 of the following molecule: COc1ccc(C2C(N)=NCC2c2ccccn2)cc1 (configuration not stated)
OUT: > 100 µM (inactive)

IN: Dear colleague, I am looking for the recorded GI50 of the following molecule: CCOC(=O)C1=C(C)NC(C)=C(C(=O)OCC)C1c1ccc(Cl)cc1
OUT: 14.7 µM (inactive)

* * *

System: 786-0
assayProcedure: NCI tumour cell line growth inhibition, 48 h
The source made the active and inactive calls. Rule as the data show it: active = GI50 up to about 1.1 µM and inactive = higher.
Result category, one only: T = active, F = inactive

Example entries and their recorded answers appear below.
CCOC(=O)CCC(NC(=O)c1ccc(OCc2ccc3nc(-c4ccccc4)c(Cl)nc3c2)cc1)C(=O)OCC (configuration not stated) : F
[O-][n+]1onc2c1CCC(=N\O)/C2=N/Nc1ccccc1 : F
c1csc(-c2ccc(-c3cccs3)c3nsnc23)c1 : F
COc1ccc(NC(=O)CC(=O)NN)cc1 : F
CCN(CC)N1C(=O)[N-][N+](CC)(CC)C1=O : F
O=C1/C=C(/c2ccc(O)cc2)[C@@H](O)Cc2ccc(O)cc2O1 : F
CC(C)(C)c1ccc(OCCOCCOc2ccc(C(C)(C)C)cc2S(=O)(=O)Nc2ccc([N+](=O)[O-])cc2)c(S(=O)(=O)Nc2ccc([N+](=O)[O-])cc2)c1 : F
C[C@]12CC[C@H](O)CC1=CC[C@@H]1[C@@H]2CC[C@]2(C)C(=O)/C(=C/c3ccc([N+](=O)[O-])cc3)C[C@@H]12 : F
Nc1nc(N)c(CCCCc2ccccc2)c(N)n1 : F
O=c1onc2n1-c1cc(Cl)ccc1C(=S)N1CSCC21 (configuration not stated) : F

IN: Hi, do you know how Oc1ccc2occ3c2c1CCC3 came out in this test?
OUT: F

IN: Hi, do you know how CCOC(=O)c1nc2ccc(C(F)(F)F)cc2nc1Nc1ccc(Cl)c(Cl)c1 came out in this test?
OUT: F

IN: Hi, do you know how C(=C\c1cc[n+](CCc2ccccc2)cc1)/c1ccccc1 came out in this test?
OUT: F

IN: Hi, do you know how C(CCC[Te][Te]CCCCCCOC1CCCCO1)CCOC1CCCCO1 (configuration not stated) came out in this test?
OUT: F

IN: Hi, do you know how COc1ccc(Nc2nc(N)c(C(=O)c3ccc(Cl)cc3)s2)cc1 came out in this test?
OUT: T

IN: Hi, do you know how COC(=O)[C@@H]1c2[nH]c3ccccc3c2C[C@@H]2c3ccccc3NC(=O)[C@@H]21 came out in this test?
OUT: F

IN: Hi, do you know how N=C(N)N1CCC(N2CCOCC2)CC1 came out in this test?
OUT: F
